The following molecules are shown together with reported cell count values.
# Experiment: inhibitors of TNFa-induced NFkB p65 translocation, primary screen, imaging, HUVEC, MLSMR starter and 10KST1 sets (AID 438);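 further: compound added about 3h40 before a 20 min TNFalpha stimulation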
# Run Conditions: HUVEC TNFa-induced p65 nuclear translocation; measured here: nuclei count (cytotoxicity indicator), at 2.08 µM

Some entries whose results are on file:
Molecule: CCCC(=O)C1=C(N(C)c2ccccc2)CC(C)(C)C(C(=O)OC)C1=O (stereo unspecified)
cell count: 429
//
Molecule: CCOC(=O)c1cnn(-c2sc(C(=O)OCC)c(C)c2C(=O)OCC)c1N
cell count: 451
//
Molecule: CCOC(=O)c1cc2c(=O)n3ccccc3nc2n(Cc2ccccc2)c1=N
cell count: 913

Give cell count for the following molecule: CCCc1cc(=O)[nH]c(SCc2ccccc2)n1
651

Note cell count for the molecule shown: CC1=C(C#N)C(=O)OC(C)(C)C1
660
